Each record here notes measured melting point.

Known melting point results, listed for orientation:
melting point lookup needed for `CCCN(CCC)S(=O)(=O)c1cc2c(cc1Br)CCN2C(C)=O` , thanks. 118 to 120 °C

melting point lookup needed for `COC(=O)[C@@H](NS(=O)(=O)c1cc2c(cc1Br)CCN2C(C)=O)C(C)C` , thanks. 190.9 to 191.7 °C

Next, consider the following molecule.
melting point lookup needed for CC(=O)N1CCc2cc(Cl)c(S(=O)(=O)N3CCCCC3)cc21 [10c] , thanks. 199.7 to 201.4 °C

* * *

- measurement-target: HiDapE (Haemophilus influenzae, UniProt P44514)
- Construct: His6 (cleaved yes); made in house
- Sequence (P44514 whole entry): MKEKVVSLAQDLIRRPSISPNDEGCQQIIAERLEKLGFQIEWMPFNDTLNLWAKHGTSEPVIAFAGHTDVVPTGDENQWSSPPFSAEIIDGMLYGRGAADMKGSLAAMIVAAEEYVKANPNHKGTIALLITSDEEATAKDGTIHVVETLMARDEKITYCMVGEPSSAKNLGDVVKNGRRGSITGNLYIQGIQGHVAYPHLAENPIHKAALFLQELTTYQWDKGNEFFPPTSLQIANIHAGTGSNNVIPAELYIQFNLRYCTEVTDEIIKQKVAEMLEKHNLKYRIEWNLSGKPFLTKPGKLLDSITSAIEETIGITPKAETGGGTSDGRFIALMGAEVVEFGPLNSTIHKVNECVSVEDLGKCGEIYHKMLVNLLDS
- protocol: ninhydrin-based DapE inhibition assay (N6-methyl-L,L-SDAP substrate)
- Format: biochemical
- Method: To conveniently measure the inhibitory potency of test compounds against DapE, we recently developed a ninhydrin-based assay employing the unnatural but well-tolerated substrate N^6-methyl-L,L-SDAP (1b). Enzymatic cleavage of 1b affords primary amine product 3b (Figure 1), which can be quantified spectrophotometrically following treatment with ninhydrin. […] DapE inhibition was measured according to the method previously described. […]
Each record here notes measured inhibition at 200 µM.
Output spec: scalar in %, unitless text.

inhibition at 200 µM lookup needed for `CC(=O)N1CCc2cc(Br)c(S(=O)(=O)NCc3ccccc3)cc21` , thanks. 56

inhibition at 200 µM lookup needed for `CC(=O)N1CCc2cc(Br)c(S(=O)(=O)NCC(C)C)cc21` , thanks. 20

More entries:
inhibition at 200 µM lookup needed for `COC(=O)CNS(=O)(=O)c1cc2c(cc1Br)CCN2C(C)=O` , thanks. 17

inhibition at 200 µM lookup needed for CC(=O)N1CCc2cc(Cl)c(S(=O)(=O)NC3CCCCC3)cc21 [10b] , thanks. 58

inhibition at 200 µM lookup needed for `COC(=O)[C@H](Cc1ccccc1)NS(=O)(=O)c1cc2c(cc1Br)CCN2C(C)=O` , thanks. 61

* * *

Each record here notes measured pIC50.
- measurement-target: HiDapE (Haemophilus influenzae, UniProt P44514)
Lab note — pIC50 values are minus log10 of concentrations in M.

Given the entry CCCN(CCC)S(=O)(=O)c1cc2c(cc1Cl)CCN2C(C)=O [10e] , what pIC50 was observed with HiDapE (Haemophilus influenzae, UniProt P44514)? 4.06

Given the entry CC(=O)N1CCc2cc(Cl)c(S(=O)(=O)N3CCCCC3)cc21 [10c] , what pIC50 was observed with HiDapE (Haemophilus influenzae, UniProt P44514)? 4.36

Given the entry CC(=O)N1CCc2cc(Cl)c(S(=O)(=O)N3CCCC3)cc21 [10d] , what pIC50 was observed with HiDapE (Haemophilus influenzae, UniProt P44514)? 3.76

More entries:
Given the entry `CC(=O)N1CCc2cc(Br)c(S(=O)(=O)NC3CCCCC3)cc21` , what pIC50 was observed with HiDapE (Haemophilus influenzae, UniProt P44514)? 3.79

Given the entry CC(=O)N1CCc2cc(Cl)c(S(=O)(=O)NCCC(C)C)cc21 [10a] , what pIC50 was observed with HiDapE (Haemophilus influenzae, UniProt P44514)? 4.27

* * *

Each record here notes measured melting point.

melting point lookup needed for COCCN(CCOC)S(=O)(=O)c1cc2c(cc1Br)CCN2C(C)=O [9m] , thanks. 110 to 111 °C

melting point lookup needed for COC(=O)CNS(=O)(=O)c1cc2c(cc1Br)CCN2C(C)=O [9e] , thanks. 179 to 182 °C

More entries:
melting point lookup needed for CC(=O)N1CCc2cc(Br)c(S(=O)(=O)NCCC(C)C)cc21 [compound 4] , thanks. 190 to 191 °C

melting point lookup needed for CC(=O)N1CCc2cc(Br)c(S(=O)(=O)NCc3ccccc3)cc21 [9c] , thanks. 205 to 208 °C

melting point lookup needed for CC(=O)N1CCc2cc(Br)c(S(=O)(=O)N3CCCCC3)cc21 [9i] , thanks. 212 to 214 °C

melting point lookup needed for CCN(CC)S(=O)(=O)c1cc2c(cc1Br)CCN2C(C)=O [9n] , thanks. 195 to 196 °C

melting point lookup needed for COC(=O)CCNS(=O)(=O)c1cc2c(cc1Br)CCN2C(C)=O [9f] , thanks. 190 to 193 °C

The measured values listed here are drawn from paper PMC7560015.
